Data provenance: ChEMBL document CHEMBL4219091

# MEASURED_ON: Human immunodeficiency virus type 1 reverse transcriptase (Human immunodeficiency virus 1)
# MEASUREMENT_DESCRIPTION: Inhibition of HIV1 reverse transcriptase p66/p51 RNase H preincubated for 10 mins followed by PBS-22dpol/radiolabeled PBS-14r8d addition measured after 5 mins
In this section we review reported log10 IC50 values for a set of compounds.
METRIC_NAME: log10 IC50 (log10 of the value in µM)

INSERT INTO assay_data (compound, measured_on, recorded_number) VALUES
  ('COc1ccc(-c2cnc3ncnc(NCc4nc(O)c(O)c(C(=O)O)n4)c3c2)cc1', 'Human immunodeficiency virus type 1 reverse transcriptase (Human immunodeficiency virus 1)', 0.18),
  ('Cc1ccc(-c2nc(O)c(O)c(C(=O)O)n2)cc1Br', 'Human immunodeficiency virus type 1 reverse transcriptase (Human immunodeficiency virus 1)', 1.36),
  ('COc1ccc(-c2cc3c(NCc4nc(O)c(O)c(C(=O)O)n4)ncnc3nc2SC)cc1', 'Human immunodeficiency virus type 1 reverse transcriptase (Human immunodeficiency virus 1)', 0.30),
  ('Cc1ccc(-c2nc(O)c(O)c(C(=O)O)n2)cc1Cl', 'Human immunodeficiency virus type 1 reverse transcriptase (Human immunodeficiency virus 1)', 1.40),
  ('O=C(Nc1ccc(-c2cccc(NC(P(=O)(O)O)P(=O)(O)O)c2)cc1)C1CC1', 'Human immunodeficiency virus type 1 reverse transcriptase (Human immunodeficiency virus 1)', -0.10);

----------
# MEASURED_ON: Human immunodeficiency virus type 1 reverse transcriptase (Human immunodeficiency virus 1, UniProt Q72547, K65R)
# MEASUREMENT_DESCRIPTION: Inhibition of HIV1 reverse transcriptase p66/p51 polymerase K65R mutant using PPT57 DNA/Cy5-labeled PPT24 as template/primer preincubated for 10 mins followed by dNTP addition measured after 5 mins by bromophenol blue staining based phosphor imaging analysis
pIC50: −log10 of the molar value.
METRIC_NAME: pIC50

INSERT INTO measurements (compound, recorded_number) VALUES
  ('Cc1ccc(-c2nc(O)c(O)c(C(=O)O)n2)cc1Br', 5.95);

----------
# MEASURED_ON: Human immunodeficiency virus type 1 reverse transcriptase (Human immunodeficiency virus 1, UniProt Q72547, E89K)
# MEASUREMENT_DESCRIPTION: Inhibition of HIV1 reverse transcriptase p66/p51 polymerase E89K mutant using PPT57 DNA/Cy5-labeled PPT24 as template/primer preincubated for 10 mins followed by dNTP addition measured after 5 mins by bromophenol blue staining based phosphor imaging analysis
METRIC_NAME: IC50 (µM)

INSERT INTO results (compound, metric_name, recorded_number) VALUES
  ('Cc1ccc(-c2nc(O)c(O)c(C(=O)O)n2)cc1Br', 'IC50', 4.63);

----------
# MEASURED_ON: Human immunodeficiency virus type 1 reverse transcriptase (Human immunodeficiency virus 1, UniProt Q72547)
# MEASUREMENT_DESCRIPTION: Inhibition of HIV1 reverse transcriptase p66/p51 polymerase using PPT57 DNA/Cy5-labeled PPT24 as template/primer preincubated for 10 mins followed by dNTP addition measured after 5 mins by bromophenol blue staining based phosphor imaging analysis
pIC50: −log10 of the molar value.
pIC50 values for the molecules below.
METRIC_NAME: pIC50

INSERT INTO results (compound, metric_name, qualifier_symbol, recorded_number) VALUES
  ('O=C(O)c1nc(-c2ccccc2)nc(O)c1O', 'pIC50', '<', 4.00),
  ('Cc1noc(C)c1-c1ccc(-c2nc(O)c(O)c(C(=O)O)n2)cc1', 'pIC50', '<', 4.00),
  ('COC(=O)c1nc(-c2ccc(C)c(Br)c2)nc(O)c1O', 'pIC50', '<', 4.00),
  ('O=C(O)c1nc(Cc2ccc(Cl)cc2)nc(O)c1O', 'pIC50', '=', 4.01),
  ('Nc1ncnc2c1ncn2CCc1nc(O)c(O)c(C(=O)O)n1', 'pIC50', '=', 4.39),
  ('O=C(O)c1nc(-c2ccc(Br)cc2)nc(O)c1O', 'pIC50', '=', 5.55),
  ('CC(C)c1ccc(-c2nc(O)c(O)c(C(=O)O)n2)cc1', 'pIC50', '=', 4.66),
  ('CSc1nc2ncnc(NCc3nc(O)c(O)c(C(=O)O)n3)c2cc1Br', 'pIC50', '<', 4.00),
  ('O=C(O)c1nc(-c2cccs2)nc(O)c1O', 'pIC50', '=', 4.34),
  ('O=C(O)c1nc(-c2cccc(-c3ccc(F)c(F)c3)c2)nc(O)c1O', 'pIC50', '<', 4.00),
  ('Cc1ccc(-c2nc(O)c(O)c(C(=O)O)n2)cc1Cl', 'pIC50', '=', 5.80),
  ('Cc1cccc(-c2nc(O)c(O)c(C(=O)O)n2)c1', 'pIC50', '=', 4.31);
